Each recorded value in this set is attributed to the RNAGym collection of RNA variant scans (doi:10.7554/elife.90254).

B1: LINE1-full (parent)
chain: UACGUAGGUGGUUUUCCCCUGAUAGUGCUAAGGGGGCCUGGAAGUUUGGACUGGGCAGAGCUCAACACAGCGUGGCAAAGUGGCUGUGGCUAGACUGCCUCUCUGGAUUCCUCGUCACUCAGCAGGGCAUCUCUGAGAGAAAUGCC

Variants of: B1
Assay: self-cleavage, relative activity (ratio to wild type); higher = more cleavage; in vitro, sequencing; the parent is a self-cleaving ribozyme
The label depends only on self-cleavage: True if it is at least 0.4, False if it is smaller.

mutant designation: C38U
label: True

mutant designation: G114A
label: True

mutant designation: U15A U143A
label: True

mutant designation: U12G A50G
label: True

mutant designation: U5G U112A
label: False

mutant designation: A69G U112C
label: True

State whether the measured self-cleavage reaches 0.4, counting equality as reaching it, for U52C G88A
False

Try this variant too: G54A A64G
False

Try this variant too: U29C U85A
False
